# credit: patent US20240253988A1

- assayMethodText: Vapor pressure, ebulliometry ASTM-E1719
- Assay type: physicochemical
quantityMeasured: Vapor Pressure (Pa)

molecule="COc1ccccc1 [Anisole (*), Anisole, reference compound]" numericvalue=490
molecule=CCCOc1ccccc1 numericvalue=60
molecule=COc1c(C)cccc1C numericvalue=124
molecule=CCc1ccc(OC)cc1 numericvalue=67

====

The following compounds are shown together with reported Specific gravity values.
- assayMethodText: Specific gravity, hydrometer ASTM-D891
- Assay type: physicochemical
quantityMeasured: Specific gravity

compound="COc1ccccc1 [Anisole (*), Anisole, reference compound]" numericvalue=0.995
compound=CCCOc1ccccc1 numericvalue=0.946
compound=CCc1ccc(OC)cc1 numericvalue=0.944
compound=COc1c(C)cccc1C numericvalue=0.943

====

- assayMethodText: Flash point, closed-cup apparatus ASTM-D3278
- Assay type: physicochemical
quantityMeasured: Flashpoint

molecule=CCc1ccc(OC)cc1 quantitymeasured=Flashpoint result="68-72 °C"
molecule="COc1ccccc1 [Anisole (*), Anisole, reference compound]" quantitymeasured=Flashpoint result="49-52 °C"
molecule=CCCOc1ccccc1 quantitymeasured=Flashpoint result="64-65 °C"
molecule=COc1c(C)cccc1C quantitymeasured=Flashpoint result="61-67 °C"
